These measurements were taken from the supplement of paper PMC6555819.

As shown below, each of these sequences has a reported PBM binding z-score value.
System: VDR homodimer (NR concentration 270 nM)
Assay: PBM binding z-score (relative to random genomic background probes); higher = stronger binding; sequences stand for … in GC…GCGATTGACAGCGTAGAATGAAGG
// print number alone

# count of solved cases: 5
1. TAGCCTAGGTCATGCGGGCCAGAATAGTGTCGGC ... 0.435
2. TCTATTAGTTGAGTAGGGCAACCGAAACAGCGGA ... -0.411
3. TCAGACAGGTGAAGGTAACTCACGTACGCAGTCG ... -0.22
4. CCTGCTATGTCAATGGTCAGCTAAAGCAGCTCGC ... -0.777
5. TTACCAAGGTGCAAGGTCGTTGATGCACGCCTTG ... 2.9

For this sequence ( AGAATGAGGTTAAGATAAGGGAAACAGAATACAT ), measured PBM binding z-score is 0.183

For this sequence ( CGTCAGAGTTCAAGGTAACGTAACAGAAAGCAGC ), measured PBM binding z-score is 4.53

For this sequence ( CCGACTGGGGCAAAGGTTACCAGACTCAGTACGA ), measured PBM binding z-score is 0.000123

For this sequence ( AGGACGAGGGCACGCTGAGTTGATAGCAGAGTAG ), measured PBM binding z-score is 1.51

For this sequence ( TCGAGTAGTTTACCAATGGGGCATTCAGCTTTCT ), measured PBM binding z-score is -0.305

* * *

Test system: PPARg homodimer (NR concentration 180 nM)
Assay: PBM binding z-score (relative to random genomic background probes); higher = stronger binding; sequences stand for … in GC…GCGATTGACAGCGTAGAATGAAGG
# label = t if PBM binding z-score >= 1 else f

1) TCTCGGAGGACACGAAAGGTCAGAGGTCGACATC ... t
2) ATATCTAGGTTACATCCGGGTCATTCAGGCTATG ... t
3) GCAGACAGTTGAAACGCAGGTAACTCAGGGTGGC ... f
4) CCGACTGGGGCAGAGGTTACCATACTCAGTACGA ... t
5) GATACAGGGTCAGCTAGTGGCCAGAGTATGGAAA ... t
6) GGAACGAGGGCATGTTGATAGCAGAGTTTGATGG ... f
7) CCTACTTGGTCAAGGTCACACACGCTATAGGTAC ... t
8) TCATATAAGTAAATGCTAGGTGAAAGTCCGATCT ... t
9) CTCGAAAGGTCGTGCTCTGGTGAGTATACCAAAC ... t
10) CCTACTGGGCCAAGAAAGGTCATTGATTCAGTGA ... t

Please check the record CCTACTAGGCCAAAAAGGTCATTGATGCCGATAA and state if its PBM binding z-score is at or above 1.
t

Please check the record TCTTTTAGATCAGCAGGTTAAGAAAGCTGGCCAA and state if its PBM binding z-score is at or above 1.
f

Please check the record ATCTCTAGGTAACTAGTTCAGTGAAAGAGAGGAC and state if its PBM binding z-score is at or above 1.
f

* * *

As shown below, each of these sequences has a reported PBM binding z-score value.
Tested on: RXRa DBDmut IVT, anti-RXR (DBD mutation: RXRa K156A/R161A, NR concentration 90 nM)
Assay: PBM binding z-score (relative to random genomic background probes); higher = stronger binding; sequences stand for … in GC…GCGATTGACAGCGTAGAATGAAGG
// print number alone

# count of solved cases: 6
1) AGATGTAGGTTATCGGGTCATTCAGTTTGCGCAT ... 1.75
2) ACTTACGCGTCAACGAGGTTATAGCACGCGTATA ... 0.579
3) ATATGTTGGTTAAGGGTCATTCAGGTTGGTTCGC ... 2.11
4) CGAACTCGGTCATTGACAGGACAGTGAATAGTAA ... 0.678
5) ATCTCTAGGTAACCATGTTCAGTGAATGCCGAAC ... 0.392
6) GCTAGCAGGCCATTTCGGTCACTCAATGACGGGC ... 0.0509

For this sequence ( CGAACTAGGTCACGAAAGGTCAAAGTCGAATGAC ), measured PBM binding z-score is 2.37

For this sequence ( GCTGCTAGGTCAGGTTGGTCAGCTTACGGGTACG ), measured PBM binding z-score is 0.504

For this sequence ( TCAGACAGGTGACGGTAACTCAGGTACGCAGTCG ), measured PBM binding z-score is 0.683

For this sequence ( TGAATGAGGTTATAAGATCAGGGAGCGTTGCAAA ), measured PBM binding z-score is 0.685

For this sequence ( CGAACTAGGGCATGAGTTGATAGCAAATGCCGAT ), measured PBM binding z-score is 0.394

For this sequence ( CCTGCTAGGTCATGGGCAGCTAATCTACAGTATG ), measured PBM binding z-score is 1.05

For this sequence ( TTACCAAGGTGATAGGTCGTTGATGCACGCCTTG ), measured PBM binding z-score is -0.12

For this sequence ( TGAATGAGGTTATAAGATCAGGGGACGTTGCAAA ), measured PBM binding z-score is 1.3

For this sequence ( GCAGCTAGGTCAACTGATGGTCAGCTAAAGCTCG ), measured PBM binding z-score is 0.798

For this sequence ( TCATATAGGTCAAGGTGAAAGTCGAACGATATGA ), measured PBM binding z-score is 1.56
